Recorded values, source paper PMC5309245.

test system: influenza A virus 8178/09; test: microbe, parasite or virus in culture; format: cell-based, influenza A virus A/Jena/8178/2009 (H1N1)
reported.property: 50% inhibitory concentration, influenza A virus 8178/09

O=S(=O)(O)c1cc(/N=N/c2c(O)ccc3ccccc23)c2c(S(=O)(=O)O)cccc2c1 [Compound 15] :: Not active
O=S(=O)(O)c1cc(S(=O)(=O)O)c2c(/N=N/c3cccc4ccccc34)c(O)ccc2c1 [Compound 16] :: Not active
COc1cc(/N=N/c2ccc(S(=O)(=O)O)cc2)ccc1/N=N/c1c(O)ccc2cc(S(=O)(=O)O)ccc12 [Compound 8] :: Not active
